These entries and their values trace back to paper PMC9090415.

Please respond with reported % inhibition Apo pol 10' for every item in the list.
# experimental.system: P. falciparum apicoplast DNA polymerase (Pf-apPOL) (Plasmodium falciparum, UniProt Q8ILY1)
# Sequence (Q8ILY1 entry or part of it): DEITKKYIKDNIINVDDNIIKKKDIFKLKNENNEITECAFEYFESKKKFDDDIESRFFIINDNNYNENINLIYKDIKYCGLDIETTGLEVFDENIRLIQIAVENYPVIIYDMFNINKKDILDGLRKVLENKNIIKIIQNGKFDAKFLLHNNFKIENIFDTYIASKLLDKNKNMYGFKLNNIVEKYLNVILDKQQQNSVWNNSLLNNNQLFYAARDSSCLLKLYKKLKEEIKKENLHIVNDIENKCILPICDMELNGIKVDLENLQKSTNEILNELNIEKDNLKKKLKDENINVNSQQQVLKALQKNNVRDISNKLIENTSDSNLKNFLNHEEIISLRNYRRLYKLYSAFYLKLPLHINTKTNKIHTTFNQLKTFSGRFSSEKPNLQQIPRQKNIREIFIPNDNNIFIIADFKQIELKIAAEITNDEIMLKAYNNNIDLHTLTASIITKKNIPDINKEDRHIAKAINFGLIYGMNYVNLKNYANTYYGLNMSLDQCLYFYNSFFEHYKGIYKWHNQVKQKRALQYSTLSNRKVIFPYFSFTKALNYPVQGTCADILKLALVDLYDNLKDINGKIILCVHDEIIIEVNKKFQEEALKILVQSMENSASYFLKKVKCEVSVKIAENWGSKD
# protocol: Fluorescence-based high-throughput DNA polymerase assay (molecular beacon), primary screen and dose-response
# Format: biochemical
# condition.notes: DRC-1; 10'; concentration 2.5

Reference set (7 entries):
>  <compound>
CCSc1nnc(NC(=O)Cc2csc(NC(=O)c3cnccn3)n2)s1 [Molecule 79]

>  <% inhibition Apo pol 10'>
-4.905%

$$$$
>  <compound>
O=C(Nc1cccc(Cl)c1)Nc1nnc(-c2ccncc2)s1 [KU0022348]

>  <% inhibition Apo pol 10'>
12.66%

$$$$
>  <compound>
NC(=O)c1cc[n+](CC2=C(C(=O)[O-])N3C(=O)[C@@H](NC(=O)[C@@H](c4ccccc4)S(=O)(=O)[O-])[C@H]3SC2)cc1.[Na+] [Molecule 9]

>  <% inhibition Apo pol 10'>
39.849%

$$$$
>  <compound>
CCN1C(=O)C(=Cc2cccc(OC)c2O)SC1=S [Molecule 78, CCN1C(=S)SC(=Cc2cccc(c2O)OC)C1=O]

>  <% inhibition Apo pol 10'>
-5.558%

$$$$
>  <compound>
COc1ccc(CNC(=O)Cn2nc3c(c2NC(=O)Cc2cccs2)CSC3)cc1 [Molecule 55]

>  <% inhibition Apo pol 10'>
7.186%

$$$$
>  <compound>
O=C(NNC(=O)C(F)(F)Sc1ccccc1)c1ccsc1 [Molecule 68, O=C(C(Sc1ccccc1)(F)F)NNC(=O)c1cscc1]

>  <% inhibition Apo pol 10'>
18.9007%

$$$$
>  <compound>
CCCCSc1nnc2c(n1)OC(c1ccc([N+](=O)[O-])o1)Nc1ccccc1-2 (centres unmarked) [KU0065811]

>  <% inhibition Apo pol 10'>
24.76%

$$$$

Now, please, on to the next compound.
// returns reported % inhibition Apo pol 10' for input CSCCC(C)(O)CNC(=O)C1CC1 (centres unmarked) [KU0200150]
4.373%

###

Exercise: for every item that follows, state its recorded % inhibition ApPOL 90'.
# experimental.system: P. falciparum apicoplast DNA polymerase (Pf-apPOL) (Plasmodium falciparum)
# protocol: Fluorescence-based high-throughput DNA polymerase assay (molecular beacon), primary screen and dose-response
# Format: biochemical
# condition.notes: DRC-2; 90'; concentration 2.5
One number for each entry, in %.

Observe how each entry below is paired with its result.
>  <compound>
O=c1cc(CN2CCCCC2)c2cc3c(cc2o1)OCO3

>  <value.unit>
%

>  <% inhibition ApPOL 90'>
8

$$$$
>  <compound>
O=C(O)c1ccc(-c2nc3cc(-c4ccc5nc(-c6ccc(C(=O)O)cc6)[nH]c5c4)ccc3[nH]2)cc1

>  <value.unit>
%

>  <% inhibition ApPOL 90'>
25

$$$$
>  <compound>
Cc1ccc(CCNC(=O)c2cnn3c(O)c(Cc4ccccc4F)c(C)nc23)cc1

>  <value.unit>
%

>  <% inhibition ApPOL 90'>
-1.26

$$$$
>  <compound>
Cc1ccc(NC(=O)Cn2ccc3c(=O)[nH]ccc32)cc1F [Molecule 48, O=C(Cn1ccc2c1cc[nH]c2=O)Nc1ccc(c(c1)F)C]

>  <value.unit>
%

>  <% inhibition ApPOL 90'>
-6.53

$$$$
>  <compound>
COc1ccc(C)cc1NC(=O)Cn1ccc2c(=O)[nH]ccc21 [Molecule 15, COc1ccc(cc1NC(=O)Cn1ccc2c1cc[nH]c2=O)C]

>  <value.unit>
%

>  <% inhibition ApPOL 90'>
-0.827

$$$$
>  <compound>
O=C(CSc1nnc(-c2ccncc2)[nH]1)c1ccc(O)c(O)c1

>  <value.unit>
%

>  <% inhibition ApPOL 90'>
50

$$$$
>  <compound>
O=c1nc(/C=C/c2ccc(Br)cc2)oc2ccccc12

>  <value.unit>
%

>  <% inhibition ApPOL 90'>
8

$$$$
>  <compound>
Cc1nc(/N=N/c2ccc(C(=O)[O-])cc2)c(COP(=O)([O-])[O-])c(C=O)c1O.[Na+].[Na+].[Na+]

>  <value.unit>
%

>  <% inhibition ApPOL 90'>
29

$$$$
>  <compound>
CCN1C(=O)C(=Cc2cccc(OC)c2O)SC1=S

>  <value.unit>
%

>  <% inhibition ApPOL 90'>
-1.1

$$$$
>  <compound>
O=C(CSc1nc2ccccc2s1)Nc1ncc([N+](=O)[O-])s1

>  <value.unit>
%

>  <% inhibition ApPOL 90'>
-3

$$$$

Report % inhibition ApPOL 90' for every entry below.
1. COc1ccc(/C=C/c2cc(C(=O)O)c3ccccc3n2)cc1
2. COc1ccc(-c2n[nH]cc2Oc2ccc(Cl)cc2)c(O)c1
3. CC(=O)OCC1=C(C(=O)[O-])N2C(=O)[C@@H](NC(=O)Cc3cccs3)[C@H]2SC1.[Na+]
4. O=C(Cn1ccc2c(=O)[nH]ccc21)Nc1cc(F)ccc1F [Molecule 42, O=C(Cn1ccc2c1cc[nH]c2=O)Nc1cc(F)ccc1F]
5. C=CCOc1c(Br)cc(Br)cc1/C=C1\SC(=N)NC1=O
6. O=C(Nc1cccc(C(=O)Nc2ccc(S(=O)(=O)[O-])c3cc(S(=O)(=O)[O-])cc(S(=O)(=O)[O-])c23)c1)Nc1cccc(C(=O)Nc2ccc(S(=O)(=O)[O-])c3cc(S(=O)(=O)[O-])cc(S(=O)(=O)[O-])c23)c1.[Na+].[Na+].[Na+].[Na+].[Na+].[Na+]
7. Cc1ccc(C)n1-c1ccc(C(=O)NNC(=O)c2ccc3nccnc3c2)cc1
8. COc1ccc(NC(=O)Cn2ccc3c(=O)[nH]ccc32)cc1 [Molecule 13, COc1ccc(cc1)NC(=O)Cn1ccc2c1cc[nH]c2=O]

1. 45
2. 13
3. 1.25
4. 0.827
5. 12
6. -13
7. 0.241
8. 4

# map each compound to its % inhibition ApPOL 90'
1. O=C(c1c[nH]c2ncccc12)N1CCCC1 [Molecule 63, O=C(c1c[nH]c2c1cccn2)N1CCCC1]
2. COc1cc(Cl)c(C)cc1NC(=O)Cn1ccc2c(=O)[nH]ccc21
3. COc1ccc(-c2c(C(F)(F)F)nn3c(=O)cc(-c4cccc([N+](=O)[O-])c4)[nH]c23)cc1
4. O=c1[nH]c2ccc([N+](=O)[O-])cc2c(-c2ccccc2)c1Sc1nc2ccccc2o1
5. CCC(C)NC(=O)c1cc(NC(C)=O)cc2nc(C)ccc12 (stereo not shown)
6. Cc1ccc(N2NC(=O)/C(=C\c3ccc(O)c([N+](=O)[O-])c3)C2=O)cc1Cl
7. CC(C)(C)OC(=O)COc1ccc2cc(-c3ccccc3)c(=O)oc2c1
8. O=C(Nc1c2c(nn1-c1ccc(Oc3ccccc3)cc1)CSC2)c1ccco1

1. 2.81
2. -2
3. 13
4. 5
5. 5.39
6. 9
7. 3.57
8. 7

Here are 4 compounds. What values of % inhibition ApPOL 90' were reported for them?
1. COc1ccc(CNC(=O)Cn2nc3c(c2NC(=O)Cc2cccs2)CSC3)cc1
2. COc1cc(NC(=O)c2ccccc2)c(OC)cc1NC(=O)Cc1cccs1
3. NS(=O)(=O)c1ccc(NC(=O)c2ccc(N3C(=O)CCC3=O)cc2)cc1
4. Cc1cc(C)c(O)c(/N=C/c2cc([N+](=O)[O-])cc(Br)c2O)c1

-1.87
31
5.53
1

Which % inhibition ApPOL 90' reading was recorded for the compound CCCCSc1nnc2c(n1)OC(c1ccc([N+](=O)[O-])o1)Nc1ccccc1-2 (stereo not shown) ?
22
